# experimentNotes: Solubility in water at 25° C
# Format: physicochemical
# settings: known compounds, 25° C, at the given pH, read-out: Solubility
observedProperty: solubility (µg/mL)
Only the number, expressed in µg/mL, is required.

Reported solubility, compound CCOC(=O)C1=C(C)NC(C)=C(C(=O)OCC)C1c1ccccc1C(F)(F)F [SKF 24260, reference compound] : ____
10

Reported solubility, compound COC(=O)C1=C(C)NC(C)=C(C(=O)OC)C1c1ccccc1C#N [reference compound] : ____
10

---

# experimentNotes: in vivo
# settings: mouse, in vivo, iv
Structures can show the parent of a compound that is named as a salt.
observedProperty: LD50

Reported LD50, compound CC(=O)C1=C(C)NC(C)=C(C(=O)OCCN(C)Cc2ccc(Cl)cc2)C1c1cccc([N+](=O)[O-])c1 (stereo not shown) [R5=CH3, A=CH2CH2, R3=drawing 15, R4=CH3] : ____
45 mg/kg

Reported LD50, compound CC(=O)C1=C(C)NC(C)=C(C(=O)OCCN(C)Cc2ccccc2)C1c1cccc([N+](=O)[O-])c1 (stereo not shown) [R5=CH3, A=CH2CH2, R3=drawing 14, R4=CH3] : ____
40 mg/kg

Reported LD50, compound CCOC(=O)C1=C(C)NC(C)=C(C(=O)OCCN(C)Cc2ccc(Cl)cc2)C1c1cccc([N+](=O)[O-])c1 (stereo not shown) [R5=C2H5O, A=CH2CH2, R3=drawing 13, R4=CH3] : ____
12 mg/kg

Reported LD50, compound CC1=C(C(=O)OCCN(C)Cc2ccccc2)C(c2cccc([N+](=O)[O-])c2)C(C(=O)OC(C)C)=C(C)N1 (stereo not shown) [R5=drawing 11, A=CH2CH2, R3=drawing 10, R4=CH3] : ____
15 mg/kg

Reported LD50, compound CCN(CCOC(=O)C1=C(C)NC(C)=C(C(=O)OC(C)C)C1c1cccc([N+](=O)[O-])c1)Cc1ccccc1 (stereo not shown) [R5=drawing 11, A=CH2CH2, R3=drawing 10, R4=C2H5] : ____
12 mg/kg

Reported LD50, compound CC1=C(C(=O)OCCCN(C)Cc2ccccc2)C(c2cccc([N+](=O)[O-])c2)C(C(=O)OC(C)C)=C(C)N1 (stereo not shown) : ____
10 mg/kg

Reported LD50, compound CCOC(=O)C1=C(C)NC(C)=C(C(=O)OCCN(C)Cc2ccccc2)C1c1cccc([N+](=O)[O-])c1 (stereo not shown) [R5=C2H5O, A=CH2CH2, R3=drawing 10, R4=CH3] : ____
15 mg/kg

Reported LD50, compound CCOC(=O)C1=C(C)NC(C)=C(C(=O)OCC)C1c1ccccc1C(F)(F)F [SKF 24260, reference compound] : ____
0.8 mg/kg

Reported LD50, compound COC(=O)C1=C(C)NC(C)=C(C(=O)OC)C1c1ccccc1C#N [reference compound] : ____
7.4 mg/kg

Reported LD50, compound COC(=O)C1=C(C)NC(C)=C(C(=O)OCCN(C)Cc2ccccc2)C1c1ccccc1C(F)(F)F (stereo not shown) [Example 24, hydrochloride] : ____
23.7 mg/kg

Reported LD50, compound CCOC(=O)C1=C(C)NC(C)=C(C(=O)OCCN(C)Cc2ccc(OC)cc2)C1c1cccc([N+](=O)[O-])c1 (stereo not shown) [R5=C2H5O, A=CH2CH2, R3=drawing 12, R4=CH3] : ____
10 mg/kg

Reported LD50, compound COC(=O)C1=C(C)NC(C)=C(C(=O)OCCN(C)Cc2ccccc2)C1c1ccccc1[N+](=O)[O-] (stereo not shown) [Example 36, hydrochloride] : ____
14 mg/kg

Reported LD50, compound COC(=O)C1=C(C)NC(C)=C(C(=O)OCCN(C)Cc2ccccc2)C1c1cccc([N+](=O)[O-])c1 (stereo not shown) [Example 2, hydrochloride] : ____
20.7 mg/kg
